Listed below: melting point values for each entry.
MEASURE: melting point

COMPOUND	MEASURE	RESULT
CC(C)C1(C)N=C2c3ncc(C4OCCO4)cc3C(=O)N2C1=O (stereo not given)	melting point	102 to 104 °C
O=C(O)C(Cc1ccccc1)Oc1ccc2cc(-c3nc(-c4ccccc4)sc3Br)ccc2c1Br (stereo not given)	melting point	221 to 223 °C
CC(=O)CCOc1c(-c2ccc(S(C)(=O)=O)cc2)cnn(-c2ccc(F)c(F)c2)c1=O	melting point	134 to 135 °C
OCc1ccc(Cn2c(NC3CCN(CC(O)COc4ccc(F)cc4)CC3)nc3ccccc32)o1 (stereo not given)	melting point	137 °C
COc1cn(-c2ccc(O)cc2F)nc(-c2ccnn2-c2ccccc2)c1=O	melting point	223 to 224 °C

* * *

MEASURE: melting point

COMPOUND	MEASURE	RESULT
Cc1c2c(c(Cc3ccc(C(C)C)cc3)c(C)c1NC(=O)NCCO)OCC2	melting point	176 to 177 °C
CNc1nc(-c2ccc(OCc3ccc(Cl)cc3)cc2)cs1	melting point	158 to 159 °C
CCC(C)(C)c1cc(-c2cc(F)cc(C=C3SC(N4CCOCC4)=NC3=O)c2)ccc1O	melting point	210 to 212 °C
N#Cc1c(Nc2cccnc2)nn(Cc2ccccc2)c1N	melting point	191 to 192 °C
CCN1CN=C2SCC(O)(c3ccc(Br)cc3)N2C1 (configuration not stated)	melting point	132 to 134 °C
Oc1ccc(SSc2ccc(O)cc2)cc1	melting point	144 to 146 °C
CC(=O)n1c(C)c(-c2ccccc2)c(=O)n1-c1ncccn1	melting point	138 to 140 °C
OC(Cc1ccccc1)(Cn1cncn1)c1ccccc1 (configuration not stated)	melting point	134 °C
O=C1Nc2cnc(N3CCN(c4ncccn4)CC3)nc2S/C1=C/c1ccc([N+](=O)[O-])cc1	melting point	320 °C
COc1cccc2c1C(=O)C(Br)=C(Br)C2=O	melting point	190 °C
O=C1c2ccccc2N2CCCN3CCN1C32 (configuration not stated)	melting point	144 to 146 °C
CC(C)CCCC(C)C1CCC2C3CC=C4CC(NCCCNC(=O)CCCCCNc5ccc([N+](=O)[O-])cc5[N+](=O)[O-])CCC4(C)C3CCC12C (configuration not stated)	melting point	165 to 166 °C
CC(C)(C)c1ccc(C2(C(N)=O)CC2)cc1	melting point	178 to 180 °C
CC12CCC(O)CC1CCC1C2CCC2(C)C(OCCO)CCC12 (configuration not stated)	melting point	181 to 183 °C
CN(CCOc1ccc([N+](=O)[O-])cc1)CCc1ccc([N+](=O)[O-])cc1	melting point	74 °C
COC(=O)c1c(C)nc2c(c1N)c1cc(Cl)ccc1n2C	melting point	203 to 211 °C
COc1cc(COc2nn(-c3ccccc3)cc2/C=C/S(C)(=O)=O)ccc1OCc1nc(-c2ccco2)oc1C	melting point	152 to 153 °C
COc1cc(CNC(=O)c2nc3cn(CCCc4ccccc4)nc3c(=O)[nH]2)ccc1F	melting point	137 to 140 °C
Cc1coc(Cc2ccc(N)cc2)n1	melting point	84 to 85 °C
CCOC(=O)c1oc2ccc(CSC)c(O)c2c1C	melting point	101 °C
Cc1c(SCCCSCc2ccncc2)ccnc1CNc1cnc2ccccc2c1	melting point	116 to 119 °C
COC(=O)C(Oc1ccc(-c2ccc(Cl)cc2)cc1)C(F)(F)F (configuration not stated)	melting point	104 to 105 °C
Nc1nnc(-c2cc(Cl)cc(Cl)c2Cl)c(N)n1	melting point	232 to 235 °C
Cc1nnc2ccc(-c3cccc(N4CCCCC4=O)c3)nn12	melting point	204 to 207 °C
CCN(CC)CCCOc1ccc(NC(=O)c2ccccc2)cc1NC(=O)c1ccccc1	melting point	139 to 140 °C
Cc1cccc2c1[nH]c1c(C(=O)O)cccc12	melting point	286 °C
CCOC(=O)C=CN1CCCC1	melting point	37.5 to 39.5 °C
C[C@@H]1N=C(c2ccccc2F)c2cc([N+](=O)[O-])ccc2N(C)C1=O	melting point	95 to 110 °C
CC(C)(C)OC(=O)C[C@H](NS(=O)(=O)c1ccc2ccccc2c1)C(=O)O	melting point	141 °C
COC(=S)c1ccncc1Cc1ccccc1	melting point	79 to 80 °C
CCCCN=C1SC(=CC(=O)O)C(=O)N1CCCC	melting point	99 to 101 °C
Cc1cc(C(=O)Nc2c(NC(=O)CCl)ccc3c2C(=O)c2ccccc2C3=O)c(C)o1	melting point	207 to 208 °C
COc1ccccc1CC(c1sccc1C)N(C)C=O (configuration not stated)	melting point	80 to 83 °C
COc1ccc([C@H]2SC(c3ccccc3)=C(C)N(CCN(C)C)C(=O)[C@H]2OC(C)=O)cc1	melting point	90 to 92 °C
CC(C)c1ccc(-c2c(Cl)ncnc2Cl)cc1	melting point	69 to 70 °C
CCOC(=O)c1c(SC2CCCCC2=O)nc2cc(Cl)c(F)cc2c1O (configuration not stated)	melting point	252 to 257 °C
CS(=O)(=O)c1ccc(-c2cnn(-c3ccc(F)cc3)c(=O)c2Oc2ccc(F)cc2)cc1	melting point	83 to 85 °C
Nc1cccc(Oc2ccc(C(=O)c3cccc(C(=O)c4ccc(Oc5cccc(N)c5)cc4)c3)cc2)c1	melting point	147 to 149 °C
O=C(NCc1ccccc1C(=O)O)c1cccc(/C=C/c2nc(C3CCC3)cs2)c1	melting point	185 to 187 °C
CCCCc1nc2c(N)nc(C)c(C)c2n1CCCCNC(=O)c1ccccc1	melting point	128 to 129 °C
c1ccc2c(c1)CNc1ccccc1N2	melting point	114 to 116 °C
CC(=O)OCC(=O)C1(O)CCC2C3CCC4=CC(=O)CCC4(C)C3CCC21C (configuration not stated)	melting point	236 °C

Attribution: a melting point compilation (Tetko et al.; mined from patent text by program, amines drawn as free bases though some values may be those of a salt)
